assay: recombinant barcode read abundance after kanamycin selection (control-corrected) (log10(CPM+1)); higher = more efficient recombination; sequences stand for … in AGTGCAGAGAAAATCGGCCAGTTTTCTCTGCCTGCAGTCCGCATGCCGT…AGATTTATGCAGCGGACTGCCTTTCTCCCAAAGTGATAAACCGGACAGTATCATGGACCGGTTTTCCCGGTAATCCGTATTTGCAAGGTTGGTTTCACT; site = the 11-nt target;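 note: IS621 recombinase and bridge RNA in Escherichia coli cells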
measurement-type: recombinant barcode read abundance (log10)

# input-sequence, observed-measurement
measured = [
    ("GTTTGACCTTGGGTTCTAACCTGTTGCTT (site GTTTGTCCTAA)", 0.0874),
    ("AAGGTCCCTTGGGTTCTAACCTGTTGCGG (site TAGGTCCCTTC)", 0.0703),
    ("GACAAACCTTGGGTTCTAACCTGTTGCCT (site GACAAACCTAG)", 0.433),
    ("ATCTTATCTTGGGTTCTAACCTGTTGCCT (site ATCTTAGCTAG)", 0.0977),
    ("CTACAATCTTGGGTTCTAACCTGTTGCCT (site CTACAATCTAG)", 0.979),
    ("TGTTCTCCTTGGGTTCTAACCTGTTGCCT (site CGTTCTCCTAG)", 0.0608),
    ("CAAGACCCTTGGGTTCTAACCTGTTGCCT (site CATGACCCTAG)", 1.17),
    ("GGTGGATCTTGGGTTCTAACCTGTTGCCT (site GGTGACTCTAG)", 0.0125),
    ("CTTCATCCTTGGGTTCTAACCTGTTGCCT (site CTTCATCCTAG)", 0.466),
    ("CATTTAGCTTGGGTTCTAACCTGTTGCGG (site AGGGCGCCTAA)", 0.0282),
    ("GGAAAGACTTGGGTTCTAACCTGTTGCCT (site GGTAAGACTAG)", 0.505),
    ("CGATTAGCTTGGGTTCTAACCTGTTGCCT (site CGATTATCTAG)", 0.186),
    ("CCTGAATCTTGGGTTCTAACCTGTTGCCT (site CCTGAATCTAG)", 0.1),
    ("CCAGTAGCTTGGGTTCTAACCTGTTGCGG (site CCAGTAGCTCC)", 1.01),
    ("CATTAACCTTGGGTTCTAACCTGTTGCCT (site CATTAACCTAG)", 1.15),
    ("AGCTTAGCTTGGGTTCTAACCTGTTGCCA (site AGCTTAGCTGG)", 0.463),
    ("GAGGGCCCTTGGGTTCTAACCTGTTGCCG (site GAGGGCCCTCC)", 1.2),
    ("GAGCTACCTTGGGTTCTAACCTGTTGCCT (site GAGCTACCTAG)", 1.46),
    ("CGTATGACTTGGGTTCTAACCTGTTGCCT (site AGTATGACTAG)", 0.28),
    ("TCCGTTACTTGGGTTCTAACCTGTTGCCG (site CAGCAGCCTAA)", 0.086),
    ("AGTTTCACTTGGGTTCTAACCTGTTGCTA (site GCCAAGGCTAG)", 1.31),
]

###

assay: recombinant barcode read abundance after kanamycin selection (control-corrected) (log10(CPM+1)); higher = more efficient recombination; sequences stand for … in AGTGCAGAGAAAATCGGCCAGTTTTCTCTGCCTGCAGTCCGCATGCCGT…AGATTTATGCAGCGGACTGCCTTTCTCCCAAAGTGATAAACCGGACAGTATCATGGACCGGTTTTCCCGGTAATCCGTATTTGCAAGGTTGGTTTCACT; site = the 11-nt target
measurement-type: recombinant barcode read abundance (log10)

# input-sequence, observed-measurement
records = [
    ("GGTATGACTTGGGTTCTAACCTGTTGCCT (site GGTATGACTAG)", 0.956),
    ("TGCTCCTCTTGGGTTCTAACCTGTTGCCT (site CGCTCCTCTAG)", 0.153),
    ("ATCCAACCTTGGGTTCTAACCTGTTGCCT (site ATCCATCCTAG)", 0.0128),
    ("TCGAACCCTTGGGTTCTAACCTGTTGCCT (site TCGAAGCCTAG)", 0.115),
    ("CTAAGAACTTGGGTTCTAACCTGTTGCGT (site CTAAGAACTAG)", 0.264),
    ("ATATGCGCTTGGGTTCTAACCTGTTGCCG (site ATATGAGCTCG)", 0.108),
    ("TAGGGCACTTGGGTTCTAACCTGTTGCTA (site TAGGGCACTTA)", 1.44),
    ("TCGATCCCTTGGGTTCTAACCTGTTGCGT (site TCGATCCCTAC)", 1.95),
    ("GGGGCACCTTGGGTTCTAACCTGTTGCAT (site GGGGCACCTAG)", 0.598),
    ("CATGGGTCTTGGGTTCTAACCTGTTGCCT (site CATGGGTCTAG)", 1.45),
    ("TGGAGCCCTTGGGTTCTAACCTGTTGCAA (site TGGAGCCCTAT)", 0.0946),
    ("GGGTAACCTTGGGTTCTAACCTGTTGCCT (site CGGTAACCTAG)", 0.064),
    ("ATAGGGACTTGGGTTCTAACCTGTTGCTA (site ATAAGGACTTA)", 1.97),
    ("GACTCTACTTGGGTTCTAACCTGTTGCTT (site GATTCTACTAA)", 0.0521),
    ("TAGTCCTCTTGGGTTCTAACCTGTTGCTC (site TAGTCCTCTTA)", 0.118),
    ("CGAACTACTTGGGTTCTAACCTGTTGCTT (site CGAACTACTAC)", 0.205),
    ("TAGATCCCTTGGGTTCTAACCTGTTGCTT (site TAGATCCCTAA)", 0.528),
    ("CTCAGGTCTTGGGTTCTAACCTGTTGCCA (site CTCAGGTCTAG)", 0.18),
    ("ACGAATCCTTGGGTTCTAACCTGTTGCTT (site ACGAGTCCTAA)", 0.461),
    ("TGCCTAGCTTGGGTTCTAACCTGTTGCCT (site TGGCTAGCTAG)", 0.11),
    ("ACACTAACTTGGGTTCTAACCTGTTGCCT (site ACACTAACTAG)", 0.404),
]
